experiment: activity coefficient (dimensionless); of the first substance listed, at infinite dilution; xn = mol fraction of the nth substance listed; details: 303 K; Liquid; Chromatography; x1 = 0
Each record is given t if its reported activity coefficient is strictly below 70. Records at or above 70 are given f.

# compound, label.value
measured = [
    ("CCO [ethanol] + C[n+]1ccn(CCCC#N)c1.N#CN=C=[N-]", "t"),
    ("Cc1ccccc1 [toluene] + C[n+]1ccn(CCCC#N)c1.N#CN=C=[N-]", "t"),
    ("CCCCCCCC [octane] + C[n+]1ccn(CCCC#N)c1.O=S(=O)([N-]S(=O)(=O)C(F)(F)F)C(F)(F)F", "f"),
    ("C=CCCCCCC [oct-1-ene] + C[n+]1ccn(CCCC#N)c1.O=S(=O)([N-]S(=O)(=O)C(F)(F)F)C(F)(F)F", "f"),
    ("CC1CCCCC1 [methylcyclohexane] + C[n+]1ccn(CCCC#N)c1.O=S(=O)([N-]S(=O)(=O)C(F)(F)F)C(F)(F)F", "f"),
    ("CCOC(C)=O [ethyl acetate] + C[n+]1ccn(CCCC#N)c1.O=S(=O)([N-]S(=O)(=O)C(F)(F)F)C(F)(F)F", "t"),
    ("CC1CCCCC1 [methylcyclohexane] + C[n+]1ccn(CCCC#N)c1.N#CN=C=[N-]", "f"),
    ("Cc1ccccc1 [toluene] + C[n+]1ccn(CCCC#N)c1.O=S(=O)([N-]S(=O)(=O)C(F)(F)F)C(F)(F)F", "t"),
    ("CCO [ethanol] + C[n+]1ccn(CCCC#N)c1.O=S(=O)([N-]S(=O)(=O)C(F)(F)F)C(F)(F)F", "t"),
    ("c1ccccc1 [benzene] + C[n+]1ccn(CCCC#N)c1.O=S(=O)([N-]S(=O)(=O)C(F)(F)F)C(F)(F)F", "t"),
    ("CCCCCCCC [octane] + C[n+]1ccn(CCCC#N)c1.N#CN=C=[N-]", "f"),
    ("CCCCCC [hexane] + C[n+]1ccn(CCCC#N)c1.O=S(=O)([N-]S(=O)(=O)C(F)(F)F)C(F)(F)F", "f"),
    ("CCCCCC [hexane] + C[n+]1ccn(CCCC#N)c1.N#CN=C=[N-]", "f"),
    ("CCOC(C)=O [ethyl acetate] + C[n+]1ccn(CCCC#N)c1.N#CN=C=[N-]", "t"),
    ("CO [methanol] + C[n+]1ccn(CCCC#N)c1.O=S(=O)([N-]S(=O)(=O)C(F)(F)F)C(F)(F)F", "t"),
]

====

activity coefficient by entry:
test: activity coefficient (dimensionless); of the first substance listed, at infinite dilution; xn = mol fraction of the nth substance listed; conditions: 298 K; Liquid; Chromatography; x1 = 0

# molecule, activity coefficient
data = [
    ("Cc1ccccc1 [toluene] + CCCCn1cc[n+](C)c1.F[B-](F)(F)F", 2.5),
    ("CC1CCCCC1 [methylcyclohexane] + CCCCCCCC[n+]1ccn(C)c1.F[B-](F)(F)F", 6.7),
    ("Cc1ccccc1 [toluene] + CCCCCCCC[n+]1ccn(C)c1.F[B-](F)(F)F", 1),
    ("CCOC(C)=O [ethyl acetate] + CCCCn1cc[n+](C)c1.F[B-](F)(F)F", 1.8),
    ("C=CCCCC [hex-1-ene] + CCCCCCCC[n+]1ccn(C)c1.F[B-](F)(F)F", 4.9),
    ("C1CCCCC1 [cyclohexane] + CCCCn1cc[n+](C)c1.F[B-](F)(F)F", 30.7),
    ("CCCCCCC [heptane] + CCCCCCCC[n+]1ccn(C)c1.F[B-](F)(F)F", 11),
    ("c1ccsc1 [thiophene] + CCCCCCCC[n+]1ccn(C)c1.F[B-](F)(F)F", 0.9),
    ("C1CCOC1 [tetrahydrofuran] + CCCCn1cc[n+](C)c1.F[B-](F)(F)F", 1.4),
    ("CCCCCC [hexane] + CCCCn1cc[n+](C)c1.F[B-](F)(F)F", 65.9),
    ("CCCCCC [hexane] + CCCCCCCC[n+]1ccn(C)c1.F[B-](F)(F)F", 8.6),
    ("C1CCOC1 [tetrahydrofuran] + CCCCCCCC[n+]1ccn(C)c1.F[B-](F)(F)F", 0.7),
    ("CCCCCCC [heptane] + CCCCn1cc[n+](C)c1.F[B-](F)(F)F", 83.5),
    ("C=CCCCCCC [oct-1-ene] + CCCCn1cc[n+](C)c1.F[B-](F)(F)F", 59.1),
    ("CCO [ethanol] + CCCCCCCC[n+]1ccn(C)c1.F[B-](F)(F)F", 0.5),
    ("c1ccccc1 [benzene] + CCCCCCCC[n+]1ccn(C)c1.F[B-](F)(F)F", 0.7),
    ("c1ccsc1 [thiophene] + CCCCn1cc[n+](C)c1.F[B-](F)(F)F", 1.7),
    ("CCOC(C)=O [ethyl acetate] + CCCCCCCC[n+]1ccn(C)c1.F[B-](F)(F)F", 0.9),
    ("CCO [ethanol] + CCCCn1cc[n+](C)c1.F[B-](F)(F)F", 1.1),
]

====

Known activity coefficient of a selection of compounds
test: activity coefficient (dimensionless); of the first substance listed, at infinite dilution; xn = mol fraction of the nth substance listed; settings: 323 K; Liquid; Chromatography; x1 = 0

# compound, activity coefficient
measured = [
    ("c1ccsc1 [thiophene] + CCCCn1cc[n+](C)c1.F[B-](F)(F)F", 1.5),
    ("C=CCCCCCC [oct-1-ene] + CCCCCCCCCCCCCCCCCC(=O)[O-].CCCCn1cc[n+](C)c1", 1.7),
    ("c1ccsc1 [thiophene] + C[n+]1ccn(CCCC#N)c1.N#CN=C=[N-]", 1.6),
    ("CC1CCCCC1 [methylcyclohexane] + CCCCCCCCCCCCCCCCCC(=O)[O-].CCCCn1cc[n+](C)c1", 1.3),
    ("C=CCCCC [hex-1-ene] + C[n+]1ccn(CCCC#N)c1.O=S(=O)([N-]S(=O)(=O)C(F)(F)F)C(F)(F)F", 47.1),
    ("c1ccccc1 [benzene] + CCCC[n+]1ccn(C)c1.O=S(=O)([N-]S(=O)(=O)C(F)(F)F)C(F)(F)F", 0.8),
    ("Cc1ccccc1 [toluene] + CCCC[n+]1ccn(C)c1.O=S(=O)([N-]S(=O)(=O)C(F)(F)F)C(F)(F)F", 1.2),
    ("CCO [ethanol] + CCCCn1cc[n+](C)c1.F[B-](F)(F)F", 1),
    ("CCCCCC [hexane] + C[n+]1ccn(CCCC#N)c1.O=S(=O)([N-]S(=O)(=O)C(F)(F)F)C(F)(F)F", 113),
    ("CCO [ethanol] + C[n+]1ccn(CCCC#N)c1.O=S(=O)([N-]S(=O)(=O)C(F)(F)F)C(F)(F)F", 1.4),
    ("O [water] + C[n+]1ccn(CCCC#N)c1.O=S(=O)([N-]S(=O)(=O)C(F)(F)F)C(F)(F)F", 1.8),
    ("CC1CCCCC1 [methylcyclohexane] + CCCCCCCC[n+]1ccn(C)c1.F[B-](F)(F)F", 5.3),
    ("CCO [ethanol] + CCCC[n+]1ccn(C)c1.O=S(=O)([N-]S(=O)(=O)C(F)(F)F)C(F)(F)F", 1.2),
    ("CC1CCCCC1 [methylcyclohexane] + CCCC[n+]1ccn(C)c1.O=S(=O)([N-]S(=O)(=O)C(F)(F)F)C(F)(F)F", 9.1),
    ("CC1CCCCC1 [methylcyclohexane] + C[n+]1ccn(CCCC#N)c1.O=S(=O)([N-]S(=O)(=O)C(F)(F)F)C(F)(F)F", 66.2),
    ("C=CCCCC [hex-1-ene] + CCCCCCCCCCCCCCCCCC(=O)[O-].CCCCn1cc[n+](C)c1", 1.4),
]

====

experiment: activity coefficient (dimensionless); of the first substance listed, at infinite dilution; xn = mol fraction of the nth substance listed; settings: 323 K; Liquid; Chromatography; x1 = 0
Flag rule - activity coefficient less than 8 flags T; the remaining entries get F.

# compound, label.value
data = [
    ("Cc1ccccc1 [toluene] + C[n+]1ccn(CCCC#N)c1.O=S(=O)([N-]S(=O)(=O)C(F)(F)F)C(F)(F)F", "T"),
    ("CO [methanol] + C[n+]1ccn(CCCC#N)c1.N#CN=C=[N-]", "T"),
    ("C=CCCCCCC [oct-1-ene] + CCCCCCCC[n+]1ccn(C)c1.F[B-](F)(F)F", "T"),
    ("C1CCCCC1 [cyclohexane] + C[n+]1ccn(CCCC#N)c1.N#CN=C=[N-]", "F"),
    ("CCCCCCCC [octane] + CCCC[n+]1ccn(C)c1.O=S(=O)([N-]S(=O)(=O)C(F)(F)F)C(F)(F)F", "F"),
    ("CCCCCCCC [octane] + C[n+]1ccn(CCCC#N)c1.O=S(=O)([N-]S(=O)(=O)C(F)(F)F)C(F)(F)F", "F"),
    ("CO [methanol] + CCCCn1cc[n+](C)c1.F[B-](F)(F)F", "T"),
    ("c1ccccc1 [benzene] + C[n+]1ccn(CCCC#N)c1.O=S(=O)([N-]S(=O)(=O)C(F)(F)F)C(F)(F)F", "T"),
    ("CO [methanol] + CCCC[n+]1ccn(C)c1.O=S(=O)([N-]S(=O)(=O)C(F)(F)F)C(F)(F)F", "T"),
    ("C=CCCCC [hex-1-ene] + CCCCn1cc[n+](C)c1.F[B-](F)(F)F", "F"),
    ("CO [methanol] + CCCCCCCCCCCCCCCCCC(=O)[O-].CCCCn1cc[n+](C)c1", "T"),
    ("C1CCCCC1 [cyclohexane] + CCCCCCCC[n+]1ccn(C)c1.F[B-](F)(F)F", "T"),
    ("C1CCCCC1 [cyclohexane] + CCCCCCCCCCCCCCCCCC(=O)[O-].CCCCn1cc[n+](C)c1", "T"),
    ("C=CCCCCCC [oct-1-ene] + CCCC[n+]1ccn(C)c1.O=S(=O)([N-]S(=O)(=O)C(F)(F)F)C(F)(F)F", "F"),
    ("C1CCOC1 [tetrahydrofuran] + CCCCCCCC[n+]1ccn(C)c1.F[B-](F)(F)F", "T"),
    ("Cc1ccccc1 [toluene] + C[n+]1ccn(CCCC#N)c1.N#CN=C=[N-]", "T"),
    ("CCCCCCC [heptane] + CCCCCCCC[n+]1ccn(C)c1.F[B-](F)(F)F", "F"),
    ("C=CCCCC [hex-1-ene] + CCCC[n+]1ccn(C)c1.O=S(=O)([N-]S(=O)(=O)C(F)(F)F)C(F)(F)F", "T"),
    ("CCO [ethanol] + CCCCCCCC[n+]1ccn(C)c1.F[B-](F)(F)F", "T"),
    ("Cc1ccccc1 [toluene] + CCCCCCCC[n+]1ccn(C)c1.F[B-](F)(F)F", "T"),
    ("CCOC(C)=O [ethyl acetate] + CCCCn1cc[n+](C)c1.F[B-](F)(F)F", "T"),
    ("CCCCCCCC [octane] + C[n+]1ccn(CCCC#N)c1.N#CN=C=[N-]", "F"),
    ("CCCCCC [hexane] + CCCCn1cc[n+](C)c1.F[B-](F)(F)F", "F"),
    ("C=CCCCCCC [oct-1-ene] + C[n+]1ccn(CCCC#N)c1.N#CN=C=[N-]", "F"),
    ("CCCCCCC [heptane] + CCCC[n+]1ccn(C)c1.O=S(=O)([N-]S(=O)(=O)C(F)(F)F)C(F)(F)F", "F"),
    ("c1ccsc1 [thiophene] + CCCC[n+]1ccn(C)c1.O=S(=O)([N-]S(=O)(=O)C(F)(F)F)C(F)(F)F", "T"),
]

Entry source: the NIST ThermoML archive (doi:10.1021/je700297c)
